study-target: T1, Recombinant human Glypican-3 (human, UniProt P51654 25-559, limits assumed, randomly biotinylated via Lysine residues (EZ-Link Sulfo-NHS-LC-LC-Biotin) where captured on Neutravidin; not biotinylated where used as competitor in solution)
T1 construct: Bought protein; The biotinylated and the non-biotinylated preparation are written as one molecule; also called GPC3; GPC-3
T1 sequence (P51654 25-559 limits assumed): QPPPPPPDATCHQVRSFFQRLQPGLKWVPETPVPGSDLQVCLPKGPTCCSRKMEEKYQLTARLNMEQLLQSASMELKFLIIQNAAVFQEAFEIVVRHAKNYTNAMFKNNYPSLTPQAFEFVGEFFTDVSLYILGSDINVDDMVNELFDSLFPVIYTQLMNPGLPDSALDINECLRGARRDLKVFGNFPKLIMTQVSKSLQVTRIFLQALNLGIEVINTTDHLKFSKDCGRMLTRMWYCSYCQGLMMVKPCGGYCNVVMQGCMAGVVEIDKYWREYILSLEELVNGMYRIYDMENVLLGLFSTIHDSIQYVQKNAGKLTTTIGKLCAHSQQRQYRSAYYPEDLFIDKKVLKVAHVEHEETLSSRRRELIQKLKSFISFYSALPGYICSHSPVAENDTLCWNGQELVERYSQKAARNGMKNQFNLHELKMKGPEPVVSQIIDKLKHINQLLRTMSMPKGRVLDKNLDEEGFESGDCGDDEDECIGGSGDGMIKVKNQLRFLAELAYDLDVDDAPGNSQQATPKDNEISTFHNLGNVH
protocol-notes: direct ELISA; biotinylated human Glypican-3 (1 ug/ml) captured via Neutravidin, dilution series of purified mutein
Entries annotated with measured Kd
Use nM as the unit, but write only the number.

Some binders with recorded Kd:
PIE-G3H (designed binder, C-terminal Strep-tag II; also called Lcn2 mutein; not shown: C-terminal Strep-tag II) QDSTSDLIPAPPLSKVPLQQNFQDNQFHGKWYVVGIAGNYILREDKDPPKMRATIYELKEDKSYNVTRVFFSRKKCDYIIWTFVPGSQPGEFTLGFIKSNPGLTSLLVRVVSTNYNQHAMVFFKWVDQNREVFGITLYGRTKELTSELKENFIRFSKSLGLPENHIVFPVPIDQCIDGSAWSHPQFEK	0.3
PIE-G3F (designed binder, C-terminal Strep-tag II; also called Lcn2 mutein; not shown: C-terminal Strep-tag II) QDSTSDLIPAPPLSKVPLQQNFQDNQFHGKWYVVGIAGNGQLREDKDPWKMSATIYELKEDKSYNVTSVRFRLKKCSYWIYTFVPGSQPGEFTLGGIKSNPGDTSNLVRVVSTNYNQHAMVFFKYVIQNREWFIITLYGRTKELTSELKENFIRFSKSLGLPENHIVFPVPIDQCIDGSAWSHPQFEK	0.35

Note: attention shifts to another entry.
Reported Kd for PIE-G3C (designed binder, C-terminal Strep-tag II; also called Lcn2 mutein; not shown: C-terminal Strep-tag II) QDSTSDLIPAPPLSKVPLQQNFQDNQFHGKWYVVGRAGNVALREDKDPPKMRATIYELKEDKSYNVTNVRFAMKKCMYSIGTFVPGSQPGEFTLGQIKSEPGNTSNLVRVVSTNYNQHAMVFFKEVYQNREIFFITLYGRTKELTSELKENFIRFSKSLGLPENHIVFPVPIDQCIDGSAWSHPQFEK : what is it?
0.32
